Cited source: ChEMBL document CHEMBL1641437

biological target: UniProt P09958; test: Inhibition of human recombinant furin by fluorescence plate reader analysis
Sequence (P09958 whole entry): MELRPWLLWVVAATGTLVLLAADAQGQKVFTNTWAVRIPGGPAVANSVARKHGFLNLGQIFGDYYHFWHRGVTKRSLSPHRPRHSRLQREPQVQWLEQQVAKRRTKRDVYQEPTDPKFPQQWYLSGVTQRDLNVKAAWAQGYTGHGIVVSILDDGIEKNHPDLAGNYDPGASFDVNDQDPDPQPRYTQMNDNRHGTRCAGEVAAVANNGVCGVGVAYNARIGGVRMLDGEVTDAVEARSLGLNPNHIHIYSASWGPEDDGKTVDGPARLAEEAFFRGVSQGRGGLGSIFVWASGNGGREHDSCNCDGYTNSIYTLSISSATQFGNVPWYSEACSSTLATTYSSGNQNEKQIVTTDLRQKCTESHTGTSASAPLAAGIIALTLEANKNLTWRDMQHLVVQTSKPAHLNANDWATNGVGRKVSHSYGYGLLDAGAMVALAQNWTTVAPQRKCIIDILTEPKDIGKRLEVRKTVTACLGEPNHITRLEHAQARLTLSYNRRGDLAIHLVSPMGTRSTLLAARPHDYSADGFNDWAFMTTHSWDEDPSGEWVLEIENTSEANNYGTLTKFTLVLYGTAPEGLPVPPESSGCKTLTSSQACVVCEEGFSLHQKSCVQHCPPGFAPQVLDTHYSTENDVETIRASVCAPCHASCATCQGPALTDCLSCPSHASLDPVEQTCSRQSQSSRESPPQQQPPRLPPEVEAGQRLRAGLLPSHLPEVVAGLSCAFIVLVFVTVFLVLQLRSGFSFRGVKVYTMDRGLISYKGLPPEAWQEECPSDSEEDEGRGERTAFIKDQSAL
I'd appreciate it if you could supply pKi values for the items below.
Answers are plain numbers, as −log10 of the molar value.

Please review the following examples before continuing.
COMPOUND SMILES	RECORDED RESULT
C/C(=N\NC(=N)N)c1cc(NS(=O)(=O)c2ccccc2)cc(/C(C)=N/NC(=N)N)c1	5.81
C/C(=N\NC(=N)N)c1ccc(Oc2ccc(/C(C)=N/NC(=N)N)cc2)cc1	4.36
C/C(=N/NC(=N)N)c1cc(OCC(=O)Nc2cc(/C(C)=N\NC(=N)N)cc(/C(C)=N/NC(=N)N)c2)cc(/C(C)=N\NC(=N)N)c1	6.24

Supply reported pKi belonging to this molecule: `N=C(N)N/N=C/c1cccc(/C=N/NC(=N)N)c1`
4.94

====

assay: Inhibition of trypsin
I'd appreciate it if you could supply Ki values for the items below.
Give bare numbers, in µM.

Please review the following examples before continuing.
COMPOUND SMILES	EXPERIMENTAL READOUT	RECORDED RESULT
C/C(=N\NC(=N)N)c1cc(NC(=O)CCCNC(=N)N)cc(/C(C)=N/NC(=N)N)c1	Ki	2.8
C/C(=N\NC(=N)N)c1cc(NC(=O)CCCCNC(=N)N)cc(/C(C)=N/NC(=N)N)c1	Ki	23
C/C(=N\NC(=N)N)c1cc(NC(=O)[C@H](N)CCCNC(=N)N)cc(/C(C)=N/NC(=N)N)c1	Ki	68
C/C(=N\NC(=N)N)c1cc(NS(=O)(=O)c2ccccc2)cc(/C(C)=N/NC(=N)N)c1	Ki	59
C/C(=N\NC(=N)N)c1cc(NC(=O)CCCN)cc(/C(C)=N/NC(=N)N)c1	Ki	12

With those in mind, consider the next compound.
Supply reported Ki belonging to this compound: `C/C(=N\NC(=N)N)c1cc(NC(=O)CCCCCNC(=N)N)cc(/C(C)=N/NC(=N)N)c1`
110

====

Target: UniProt P00780
Sequence (whole entry): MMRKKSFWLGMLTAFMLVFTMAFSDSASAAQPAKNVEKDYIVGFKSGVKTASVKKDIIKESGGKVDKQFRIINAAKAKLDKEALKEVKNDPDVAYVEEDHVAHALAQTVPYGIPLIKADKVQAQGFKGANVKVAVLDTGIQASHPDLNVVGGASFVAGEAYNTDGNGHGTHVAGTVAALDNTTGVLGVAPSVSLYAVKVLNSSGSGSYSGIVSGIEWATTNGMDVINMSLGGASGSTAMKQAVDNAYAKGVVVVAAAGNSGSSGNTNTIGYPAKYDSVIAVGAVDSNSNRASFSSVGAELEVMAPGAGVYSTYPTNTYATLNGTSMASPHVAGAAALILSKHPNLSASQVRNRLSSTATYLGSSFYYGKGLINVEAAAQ
Assay: Inhibition of Bacillus licheniformis subtilisin at 100 uM relative to control
I'd appreciate it if you could supply inhibition values for the items below.
Give bare numbers, in %.

COMPOUND SMILES	ASSAY SYSTEM	inhibition / %
N=C(N)N/N=C/c1ccc(/C=N/NC(=N)N)cc1	UniProt P00780	0

Batch of 5 compounds: report inhibition for each.
1. N=C(N)N/N=C/c1cccc(/C=N/NC(=N)N)c1
2. C/C(=N\NC(=N)N)c1cccc(/C(C)=N/NC(=N)N)c1
3. C/C(=N/NC(=N)N)c1cc(NC(=O)CC(=O)Nc2cc(/C(C)=N/NC(=N)N)cc(/C(C)=N/NC(=N)N)c2)cc(/C(C)=N/NC(=N)N)c1
4. C/C(=N\NC(=N)N)c1cc(NC(=O)CCCNC(=N)N)cc(/C(C)=N/NC(=N)N)c1
5. C/C(=N\NC(=N)N)c1ccc(/C(C)=N/NC(=N)N)cc1

1. 4.4
2. 0
3. 7.7
4. 7.9
5. 7.9
